I'd appreciate it if you could supply IC50 values for the items below.
Target: DCN1 (Homo sapiens (Human))
Sequence (Q96GG9 58-259): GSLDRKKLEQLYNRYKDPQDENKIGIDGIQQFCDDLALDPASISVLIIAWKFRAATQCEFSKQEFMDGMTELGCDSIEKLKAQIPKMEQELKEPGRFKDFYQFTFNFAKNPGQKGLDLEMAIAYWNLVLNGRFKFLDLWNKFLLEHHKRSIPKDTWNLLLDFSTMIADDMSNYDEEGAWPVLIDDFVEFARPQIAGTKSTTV
Assay: Competitive FP binding assay
Conditions: read-out: Binding affinity to DCN1 (IC50 (nM))
Protocol: Competitive FP Binding Assay The Fluorescence Polarization (FP) competitive binding assays were performed to accurately determine the binding affinities of our DCN1 inhibitors. […] Serial dilutions of proteins were mixed with 46 to a final volume of 200 μl in the assay buffer (100 mM phosphate buffer, pH=6.5, with 0.02% Tween-20 and 2% DMSO). Final probe concentration was 5 nM for both assays. Plates were incubated at room temperature for 30 minutes with gentle shaking to assure equilibrium. […]
Square brackets hold non-standard residues; d marks the D form. Peptide text beside a SMILES is read from it. * marks the point of attachment. Ala(6-iPr-benzothiazol-2-yl) = CC(C)c1ccc2nc(C[C@H](N)C(=O)O)sc2c1; Isobutyryl = CC(C)C(=O)*
Could you give me the number in nM? Just the number is fine.

# IC50 (compound: CC[C@H](C)[C@@H](CN)NC(=O)[C@H](Cc1nc2ccc(C(C)C)cc2s1)NC(=O)C(C)C [Example 50] ) is 255

# IC50 (compound: CCC(=O)N[C@@H](Cc1nc2ccc(Cl)cc2s1)C(=O)N[C@H](C(=O)N[C@@H](CCCCN)C(=O)N[C@@H](c1ccccc1)c1cn(CCO)nn1)C1CCOCC1 [249 & 250] ) is 120

# IC50 (compound: CC[C@H](C)[C@H](NC(=O)[C@H](Cc1nc2ccc(C(C)C)cc2s1)NC(=O)C(C)C)C(=O)N[C@@H](CCCCN)C(=O)N[C@@H](CC(C)C)C(N)=O [Example 275] (Isobutyryl-[Ala(6-iPr-benzothiazol-2-yl)]IKL-NH2) ) is 77.8

# IC50 (compound: CCC(=O)N[C@@H](Cc1nc2ccc(C(C)(C)C)cc2s1)C(=O)N[C@H](CN)Cc1ccccc1 [Example 223] ) is 949

# IC50 (compound: CCC(=O)N[C@@H](Cc1nc2ccc(C(C)C)cc2s1)C(=O)N[C@H](CNC(=O)C1CCN(CC)CC1)C1CCCCC1 [Example 70] ) is 45.1

# IC50 (compound: CCC(=O)N[C@H](CNC(=O)C1(N)CCCCC1)Cc1nc2ccc(C(C)C)cc2s1 [Example 110] ) is 1900

# IC50 (compound: CCC(=O)N[C@@H](Cc1nc2ccc(Cl)cc2s1)C(=O)N[C@H](C(=O)N[C@@H](CCCCN)C(=O)N[C@@H]1CNCc2ccccc21)C1CCCC1 [Example 39] ) is 173

# IC50 (compound: CCC(=O)N[C@@H](Cc1nc(C)c(-c2cccc(Br)c2)s1)C(=O)N[C@H](CN)Cc1ccccc1 [Example 232] ) is 984

# IC50 (compound: CCC(=O)N[C@@H](Cc1nc2ccc(C)cc2s1)C(=O)N[C@H](C(=O)N[C@@H](CCCCN)C(=O)N[C@@H]1CCOc2ccccc21)C1CCOCC1 [Example 181] ) is 176

# IC50 (compound: CCC(=O)N[C@@H](Cc1nc2ccc(Cl)cc2s1)C(=O)N[C@@H](Cc1ccncc1)C(=O)N[C@@H](CCCCN)C(=O)N[C@@H]1CCOc2ccccc21 [Example 203] ) is 282

# IC50 (compound: CCC(=O)N[C@@H](Cc1nc2ccc(Cl)cc2s1)C(=O)N[C@H](C(=O)N[C@@H](CC1CCN(C)CC1)C(=O)N[C@@H]1CCOc2ccccc21)C1CCOCC1 [Example 42] ) is 299

# IC50 (compound: CNC(=O)N[C@@H](Cc1nc2ccc(Cl)cc2s1)C(=O)N[C@H](C(=O)N[C@@H](CCCCN)C(=O)N[C@@H]1CCOc2ccccc21)C1CCOCC1 [Example 209] ) is 278
